# Experimental target: human JAK3 catalytic kinase (JH1) domain (Homo sapiens (Human))
# Test name: ADP-Glo Kinase Assay, recombinant JAK3 catalytic kinase (JH1) domain
# Assay type: biochemical
# Test conditions: recombinant JH1 domain 0.3 nM, 4 μM ATP, JAK3-974 peptide, mean, read-out: JAK3 biochem IC50 (nM) Mean
Readout: log10 IC50 (log10 of the value in nM)
Please interpret these as log10 of IC50 where IC50 is in nM.

                              record_smiles  experimental_value
0  Cn1cc(-c2cc3c(N4CC5CCC(C4)N5C(=O)[C@@H]4C[C@H]4F)ccnn3c2)cc(F)c1=O                3.20
1  O=C([C@@H]1C[C@H]1F)N1C2CCC1CN(c1ccnc3[nH]c(-c4ccc(C(F)F)nc4)nc13)C2                2.87
2  COc1cc(-c2cc3c(N4CC5CCC(C4)N5C(=O)[C@@H]4C[C@H]4F)ncnn3c2)ccn1                3.63
3  COc1cc(-c2cc3c(N4CC5CCC(C4)N5C(=O)[C@@H]4C[C@H]4F)ccnc3[nH]2)ccn1                2.06
4  Cn1cc(-c2cc3c(N4CC5CCC(C4)N5C(=O)C4CC4)ccnc3[nH]2)cn1                2.40

Please state log10 IC50 for every molecule in the list that follows.
1. Cn1cc(-c2cc3c(N4CC5CCC(C4)N5C(=O)[C@@H]4C[C@H]4F)ccnc3[nH]2)cn1
2. Cn1cc(-c2cc3c(N4CC5CCC(C4)N5C(=O)[C@@H]4C[C@H]4F)ncnc3[nH]2)cn1

Ans:
1.79
2.53

---

# Experimental target: human JAK3 catalytic kinase (JH1) domain (Homo sapiens (Human), UniProt P52333)
# Sequence (P52333 822-1111): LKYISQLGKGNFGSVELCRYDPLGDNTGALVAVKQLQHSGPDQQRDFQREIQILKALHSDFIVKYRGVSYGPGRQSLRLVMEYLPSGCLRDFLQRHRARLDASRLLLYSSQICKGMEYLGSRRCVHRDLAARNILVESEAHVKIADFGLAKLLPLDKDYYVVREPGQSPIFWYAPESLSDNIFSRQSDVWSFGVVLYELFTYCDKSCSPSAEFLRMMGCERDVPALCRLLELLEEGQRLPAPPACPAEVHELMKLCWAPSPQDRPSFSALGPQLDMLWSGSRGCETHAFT
# Test name: ADP-Glo Kinase Assay, recombinant JAK3 catalytic kinase (JH1) domain
# Format: biochemical
# Test conditions: recombinant JH1 domain 0.3 nM, 4 μM ATP, JAK3-974 peptide, mean, read-out: JAK3 biochem IC50 (nM) Mean
Hi there, I'd appreciate the recorded IC50 for every entry that follows.
Answers are plain numbers, in nM.

Use these answered entries as a reference point.
                              record_smiles  readout  reading_unit  experimental_value
0  O=C([C@@H]1C[C@H]1F)N1C2CCC1CN(c1ccnn3cc(-c4ccnc(C(F)(F)F)c4)cc13)C2     IC50            nM                 835
1  Cn1cc(-c2cc3c(N4CC5CCC(C4)N5C(=O)[C@@H]4C[C@H]4F)ccnn3c2)ccc1=O     IC50            nM                 595

Please state IC50 for every molecule in the list that follows.
1. O=C([C@@H]1C[C@H]1F)N1C2CCC1CN(c1ccnn3cc(-c4ccnc(C(F)F)c4)cc13)C2
2. O=C(N1C2CCC1CN(c1ncnn3cc(-c4cnn(C(F)F)c4)cc13)C2)C1(C(F)(F)F)CC1

Ans:
1: 541; 2: 6010

---

# Experimental target: human JAK2 catalytic kinase (JH1) domain (Homo sapiens (Human), UniProt O60674)
# Sequence (O60674 849-1124): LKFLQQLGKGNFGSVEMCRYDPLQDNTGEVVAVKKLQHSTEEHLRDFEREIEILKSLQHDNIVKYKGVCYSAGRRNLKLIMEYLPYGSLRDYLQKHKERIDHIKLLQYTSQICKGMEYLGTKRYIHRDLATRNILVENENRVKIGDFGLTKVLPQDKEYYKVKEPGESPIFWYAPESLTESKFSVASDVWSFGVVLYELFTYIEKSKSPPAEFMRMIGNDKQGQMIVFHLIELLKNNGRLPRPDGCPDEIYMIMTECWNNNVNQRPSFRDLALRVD
# Test name: ADP-Glo Kinase Assay, recombinant JAK2 catalytic kinase (JH1) domain
# Type: biochemical
# Test conditions: recombinant JH1 domain 0.2 nM, 15 μM ATP, JAK3-974 peptide, mean, read-out: JAK2 biochem IC50 (nM) Mean
# Description: Compounds of the disclosure were assessed for their ability to inhibit TYK2, JAK1, JAK2, and JAK3 activity. The inhibitory properties of the compounds of the disclosure described herein can be evidenced by testing in any one of the following protocols. The kinase activity of recombinantly generated catalytic kinase (also known as JH1) domain of human JAK1, JAK2, JAK3 and TYK2 were evaluated in a plate-based assay using the ADP-Glo™ Kinase Assay platform. […]
Lab note: cut-off is 5000 nM. Strictly less in IC50 is yes (1). Exactly 5000 nM or more is no (0).

// known answers, use as guide
In [3]: df
Out[3]:
                                   compound                       experimental_target  class_assignment
0  O=C(C1CC1)N1C2CCC1CN(c1ncnc3[nH]c(-c4cnn(C(F)F)c4)cc13)C2  human JAK2 catalytic kinase (JH1) domain (Homo sapiens (Human), UniProt O60674)           yes (1)
1  O=C(C1CCC1)N1C2CCC1CN(c1ncnn3cc(-c4cnn(C(F)F)c4)cc13)C2  human JAK2 catalytic kinase (JH1) domain (Homo sapiens (Human), UniProt O60674)            no (0)
2  O=C([C@@H]1C[C@H]1F)N1C2CCC1CN(c1ccnn3cc(-c4ccnc(C(F)(F)F)c4)cc13)C2  human JAK2 catalytic kinase (JH1) domain (Homo sapiens (Human), UniProt O60674)           yes (1)
3  O=C(CC(F)(F)F)N1C2CCC1CN(c1ncnn3cc(-c4cnn(C(F)F)c4)cc13)C2  human JAK2 catalytic kinase (JH1) domain (Homo sapiens (Human), UniProt O60674)            no (0)
4  O=C(C1CC1)N1C2CCC1CN(c1ncnn3cc(-c4cccnc4)cc13)C2  human JAK2 catalytic kinase (JH1) domain (Homo sapiens (Human), UniProt O60674)            no (0)
5  N#CC1CC1c1nc2c(N3CC4CCC(C3)N4C(=O)[C@@H]3C[C@H]3F)ccnc2[nH]1 (some centres unmarked)  human JAK2 catalytic kinase (JH1) domain (Homo sapiens (Human), UniProt O60674)            no (0)
6  Cn1cc(-c2cc3c(N4CC5CCC(C4)N5C(=O)C(C)(F)F)ncnn3c2)cn1  human JAK2 catalytic kinase (JH1) domain (Homo sapiens (Human), UniProt O60674)           yes (1)
7  CC(C)n1ncc(-c2cc3c(N4CC5CCC(C4)N5C(=O)C4CC4)ncnn3c2)c1F  human JAK2 catalytic kinase (JH1) domain (Homo sapiens (Human), UniProt O60674)           yes (1)
8  COc1ccc(-c2cc3c(N4CC5CCC(C4)N5C(=O)[C@@H]4C[C@H]4F)ccnn3c2)nn1  human JAK2 catalytic kinase (JH1) domain (Homo sapiens (Human), UniProt O60674)           yes (1)
9  O=S(=O)(C1CC1)N1C2CCC1CN(c1ncnn3cc(-c4cnn(C(F)F)c4)cc13)C2  human JAK2 catalytic kinase (JH1) domain (Homo sapiens (Human), UniProt O60674)            no (0)

Q: Strictly below 5000 nM: is that where IC50 of Cn1cc(-c2cc3c(N4CC5CCC(C4)N5C(=O)C4CC(F)C4)ncnn3c2)cn1 (centres unmarked) sits?
Ans: no (0)

Q: Strictly below 5000 nM: is that where IC50 of `C[C@]1(F)C[C@H](C(=O)N2C3CCC2CN(c2ncnn4cc(-c5cnn(C(F)F)c5)cc24)C3)C1` sits?
Ans: no (0)

---

# Experimental target: human JAK3 catalytic kinase (JH1) domain (Homo sapiens (Human))
# Test name: ADP-Glo Kinase Assay, recombinant JAK3 catalytic kinase (JH1) domain
# Type: biochemical
# Test conditions: recombinant JH1 domain 0.3 nM, 4 μM ATP, JAK3-974 peptide, mean, read-out: JAK3 biochem IC50 (nM) Mean
Readout: IC50 (nM)
Numbers only, in nM.

Use these answered entries as a reference point.
                                   molecule  readout  experimental_value
0  Cn1cc(-c2cc3c(N4CC5CCC(C4)N5C(=O)CC#N)ccnn3c2)cn1     IC50                 346
1  O=C([C@H]1CC1(F)F)N1C2CCC1CN(c1ncnn3cc(-c4cnn(C(F)F)c4)cc13)C2 (single isomer, unassigned) [Example 77]     IC50                8880
2  CN(C)c1ccc(-c2cc3c(N4CC5CCC(C4)N5C(=O)[C@@H]4C[C@H]4F)ncnc3[nH]2)cn1     IC50                 468

Please state IC50 for every molecule in the list that follows.
1. O=C(C1CC1)N1C2CCC1CN(c1ncnn3cc(-c4cnn(C5CCOCC5)c4)cc13)C2
2. O=C(C1CC1)N1C2CCC1CN(c1ncnn3cc(-c4cnn(C(F)F)c4)c(F)c13)C2
3. O=C([C@@H]1CC1(F)F)N1C2CCC1CN(c1ncnc3[nH]c(-c4cnn(C(F)F)c4)cc13)C2
4. CNc1ccc(-c2cc3c(N4CC5CCC(C4)N5C(=O)[C@@H]4C[C@H]4F)ccnn3c2)cn1
5. Cn1ncc(-c2cc3c(N4CC5CCC(C4)N5C(=O)[C@@H]4C[C@H]4F)ccnn3c2)c1F [Example 133]
6. Cn1cc(-c2cc3c(N4CC5CCC(C4)N5C(=O)C(F)(F)F)ncnn3c2)cn1

Ans:
1: 1900; 2: 10000; 3: 999; 4: 658; 5: 856; 6: 2550

Q: Provide IC50 value for the following molecule: `N#Cc1cc(-c2cc3c(N4CC5CCC(C4)N5C(=O)[C@@H]4C[C@H]4F)ncnn3c2)ccn1`
Ans: 7940
